# tested-on: Gamma secretase (Homo sapiens, UniProt P49768)
# Construct: endogenous in cells; host or cells: Salt-washed membranes of 293 T-REx cells, clone pTRE.15; Only the substrate SPC99-Lon is transfected (pcDNA4/TO, tetracycline-induced)
# procedure-details: Gamma secretase activity assay on membranes of 293 cells expressing SPC99-Lon (Aβ 40 / Aβ 42 measured by ECL immunoassay)
# Assay type: biochemical
# experimental-setup: membrane γ-secretase assay, 37 C, 1 h; read-out: IC50 (μM), γ-secretase inhibitory activity
reported-endpoint: IC50 (µM)
Number only, in µM; omit the unit.

A selection of reference data follows.
[
  {
    "molecule": "NC(=O)C1(N2CCCCC2)CCN(C(=O)OC2([C@H]3CCC[C@@H](c4cc(F)cc(F)c4)N3S(=O)(=O)c3ccc(Cl)cc3)CC2)CC1 [Example 173-J]",
    "tested-on": "Gamma secretase (Homo sapiens, UniProt P49768)",
    "result-unit": "µM",
    "IC50": 0.0008
  },
  {
    "molecule": "O=C(OC1(C2CCCC(c3cccc(F)c3)N2S(=O)(=O)c2ccc(Cl)cc2)CC1)N1CCN(CCO)CC1 (stereo not drawn) [Example 173-C]",
    "tested-on": "Gamma secretase (Homo sapiens, UniProt P49768)",
    "result-unit": "µM",
    "IC50": 0.0018
  }
]

Please give the measured IC50 for this molecule: O=C(OC[C@H]1CCC[C@@H](c2cc(F)cc(F)c2)N1S(=O)(=O)c1ccc(Cl)cc1)N1CCC(N2CCCCC2)CC1 [Example 67-AT] 0.0038
